The values you see were collected from patent US12162820B2.

experimental_target: ATX (autotaxin) (Homo sapiens)
Construct: purchased Cayman 10803
assay_text: Autotaxin Inhibition Screening Assay (choline release from LPC, LPC-CR)
Format: biochemical
condition_parameters: 50 μM compound
Measured inhibition at 50 µM, listed per entry for reference.
endpoint_label: inhibition at 50 µM

- CCN(CC)c1ccc(C(=O)NC2CCc3cc(/C=C/C(=O)NO)ccc32)cc1 (stereo not shown): < 50%
- O=C(/C=C/c1ccc2c(c1)CCCC2NC(=O)c1cc(C(F)(F)F)cc(C(F)(F)F)c1)NO (stereo not shown): < 50%
- COc1ccc(S(=O)(=O)NC2CCc3cc(/C=C/C(=O)Nc4ccc(F)cc4N)ccc32)cc1 (stereo not shown): < 50%
- O=C(/C=C/c1ccc(COc2ccc3c(c2)CCC(Cc2cc(C(F)(F)F)cc(C(F)(F)F)c2)C3=O)cc1)NO (stereo not shown): < 50%
- O=C(/C=C/c1ccc2c(c1)CCC2NC(=O)c1cc(C(F)(F)F)cc(C(F)(F)F)c1)NO (stereo not shown): < 50%
- Nc1cc(F)ccc1NC(=O)/C=C/c1ccc(COc2ccc3c(c2)CCCC3=O)cc1: < 50%
- Nc1cc(F)ccc1NC(=O)/C=C/c1ccc2c(c1)CCC2NS(=O)(=O)c1cc(C(F)(F)F)cc(C(F)(F)F)c1 (stereo not shown): < 50%

----------
experimental_target: HDAC3 (Homo sapiens)
Construct: purchased Enzo Life Sciences
Sequence (O15379 whole entry): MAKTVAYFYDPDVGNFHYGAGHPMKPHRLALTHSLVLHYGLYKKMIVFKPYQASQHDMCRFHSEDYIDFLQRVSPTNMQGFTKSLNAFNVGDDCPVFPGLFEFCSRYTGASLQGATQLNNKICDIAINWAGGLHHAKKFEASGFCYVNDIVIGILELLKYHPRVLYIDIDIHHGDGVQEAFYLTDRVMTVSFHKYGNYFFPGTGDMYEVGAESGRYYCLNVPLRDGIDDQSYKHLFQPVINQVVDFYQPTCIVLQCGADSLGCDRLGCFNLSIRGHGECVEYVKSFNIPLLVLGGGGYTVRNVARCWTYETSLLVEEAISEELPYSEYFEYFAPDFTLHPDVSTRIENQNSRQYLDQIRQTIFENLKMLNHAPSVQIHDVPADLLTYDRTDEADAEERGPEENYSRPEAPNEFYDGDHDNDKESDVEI
Sequence (O75376 395-489 partner limits assumed): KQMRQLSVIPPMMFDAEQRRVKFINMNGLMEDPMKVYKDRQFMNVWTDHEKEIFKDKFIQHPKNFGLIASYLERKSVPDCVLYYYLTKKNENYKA
assay_text: HDAC Inhibition Screening Assay (FLUOR DE LYS Fluorimetric Drug Discovery Kit), HDAC3
Type: biochemical
condition_parameters: 2 μM compound
Measured inhibition at 2 µM, listed per entry for reference.
endpoint_label: inhibition at 2 µM

* CCN(CC)c1ccc(C(=O)NC2CCc3cc(/C=C/C(=O)NCCCCCC(=O)Nc4ccc(F)cc4N)ccc32)cc1 (stereo not drawn) | < 50%
* O=C(CCCCCCC(=O)NC1CCc2cc(Br)ccc21)NO (stereo not drawn) | > 80%
* Nc1cc(F)ccc1NC(=O)CCCCNC(=O)c1ccc2c(c1)CC/C(=C\c1cc(C(F)(F)F)cc(C(F)(F)F)c1)C2=O | < 50%
* Cc1[nH]c2ccccc2c1CCNC1CCc2cc(/C=C/C(=O)NO)ccc21 (stereo not drawn) | > 80%
* O=C(/C=C/c1ccc2c(c1)CCC2NC(=O)c1ccc(F)cc1)NCCCCCC(=O)NO (stereo not drawn) | 50 to 80%
* O=C(CCCCC(=O)N1CCN(C(=O)c2ccc3c(c2)CC/C(=C\c2cc(C(F)(F)F)cc(C(F)(F)F)c2)C3=O)CC1)NO | < 50%
* O=C(NO)c1ccc(COc2ccc3c(c2)CC(Cc2cc(C(F)(F)F)cc(C(F)(F)F)c2)C3=O)cc1 (stereo not drawn) | < 50%
* O=C(/C=C/c1ccc(COc2ccc3c(c2)CCCC3=O)cc1)NO | > 80%
* Nc1cc(F)ccc1NC(=O)/C=C/c1ccc2c(c1)CC/C(=C\c1cc(C(F)(F)F)cc(C(F)(F)F)c1)C2=O | < 50%
* Nc1cc(F)ccc1NC(=O)CCCCCCC(=O)Nc1ccc2c(c1)CC/C(=C\c1cc(C(F)(F)F)cc(C(F)(F)F)c1)C2=O | < 50%
* O=C(CCCCNC(=O)c1ccc2c(c1)CC/C(=C\c1cc(C(F)(F)F)cc(C(F)(F)F)c1)C2=O)NO | < 50%
* Nc1cc(F)ccc1NC(=O)/C=C/c1ccc(COc2ccc3c(c2)CCCC3=O)cc1 | < 50%
* O=C(/C=C/c1ccc2c(c1)CC/C(=C\c1cc(C(F)(F)F)cc(C(F)(F)F)c1)C2=O)NCCCCCC(=O)NO | < 50%
* O=C(/C=C/c1ccc2c(c1)CC/C(=C\c1cc(C(F)(F)F)cc(C(F)(F)F)c1)C2=O)NO | < 50%
* CCN(CC)c1ccc(C(=O)NC2CCc3cc(/C=C/C(=O)Nc4ccc(F)cc4N)ccc32)cc1 (stereo not drawn) | < 50%
* COc1ccc(S(=O)(=O)NC2CCc3cc(/C=C/C(=O)NO)ccc32)cc1 (stereo not drawn) | > 80%
* Nc1cc(F)ccc1NC(=O)CCCCC(=O)Nc1ccc2c(c1)CC/C(=C\c1cc(C(F)(F)F)cc(C(F)(F)F)c1)C2=O | < 50%
* Cc1[nH]c2ccccc2c1CCNC1CCCc2cc(/C=C/C(=O)Nc3ccc(F)cc3N)ccc21 (stereo not drawn) | 50 to 80%
* Nc1cc(F)ccc1NC(=O)CCCCCCC(=O)NC1CCc2cc(Br)ccc21 (stereo not drawn) | < 50%
* Nc1cc(F)ccc1NC(=O)/C=C/c1ccc2c(c1)CCC2NCCC(=O)Nc1cc(C(F)(F)F)cc(C(F)(F)F)c1 (stereo not drawn) | < 50%
* O=C(/C=C/c1ccc(COc2ccc3c(c2)CC/C(=C\c2cc(C(F)(F)F)cc(C(F)(F)F)c2)C3=O)cc1)NO | < 50%
* CCN(CC)c1ccc(C(=O)NC2CCc3cc(/C=C/C(=O)NO)ccc32)cc1 (stereo not drawn) | > 80%
* O=C(/C=C/c1ccc2c(c1)CCC2NCCc1c[nH]c2ccccc12)NO (stereo not drawn) | > 80%
* COc1ccc2c(c1)CCC2NC(=O)CCCCCCC(=O)NO (stereo not drawn) | 50 to 80%
* CCN(CC)c1ccc(C(=O)NC2CCc3cc(/C=C/C(=O)NCCCCCC(=O)NO)ccc32)cc1 (stereo not drawn) | > 80%
* Nc1cc(F)ccc1NC(=O)CCCCCNC(=O)c1ccc2c(c1)CC/C(=C\c1cc(C(F)(F)F)cc(C(F)(F)F)c1)C2=O | < 50%
* O=C(/C=C/c1ccc2c(c1)CCC2N1CC(=O)N(c2cc(Cl)cc(Cl)c2)C1=O)NO (stereo not drawn) | > 80%
* Cc1[nH]c2ccccc2c1CCNC1CCc2cc(/C=C/C(=O)Nc3ccc(F)cc3N)ccc21 (stereo not drawn) | > 80%
* COc1ccc2c(c1)CCCC2NC(=O)CCCCCCC(=O)NO (stereo not drawn) | > 80%
* Nc1cc(F)ccc1NC(=O)/C=C/c1ccc2c(c1)CCCC2NC(=O)c1cc(C(F)(F)F)cc(C(F)(F)F)c1 (stereo not drawn) | < 50%
